System: CD8+ T cells
Test: In vitro immunogenicity: T-cell priming with aAPCs loaded with peptide/MHC and anti-CD28, pMHC multimer readout
Type: cell-based, human
Settings: Table 10a, pMHC multimer readout after T-cell priming
Reported metric: Wells positive [%]

Look over these answered cases.
491 (YEVDTVLRY; listed as Homo sapiens) [compound 491] = + (<20% = +)
501 (KEGDLGGKQW; listed as Homo sapiens) [compound 501] = + (<20% = +)
495 (RENQVLGSGW; listed as Homo sapiens) [compound 495] = +++ (50%-69% = +++)
500 (QEVLLQTFL; listed as Homo sapiens) [compound 500] = + (<20% = +)
479 (QENSYQSRL; listed as Homo sapiens) [compound 479] = + (<20% = +)

Alright, here's another substance for you.
Q. Provide value of Wells positive [%] for this record tested with CD8+ T cells: 485 (NEHPSNNW; listed as Homo sapiens) [compound 485]
A. + (<20% = +)

====

Biological target: HLA-B*44:05 (Homo sapiens, UniProt P01889, A223V/A65T/A93T/A95T/D201E/D98Y/E176V/E187L/E204Q/E69K/G107R/H137Y/K202T/L105A/L119I/N104T/N87E/Q56L/Q94N/R106L/R155S/R180D/S101N/S121R/S35A/S48T/T118I/V36M/W191S/Y91S)
Test: MHC binding assay (UV-ligand exchange, β2m ELISA, peptide exchange yield)
Settings: binding to HLA-B*44:05
Reported metric: Peptide exchange (MHC class I binding score, peptide exchange yield)

129 (EEAMKRLSY; listed as Homo sapiens) [compound 129] = ++ (>20% = ++)
374 (NEAEWQEIL; listed as Homo sapiens) [compound 374] = +++ (>50 = +++)
10 (SEYPTKNYV; listed as Homo sapiens) [compound 10] = ++ (>20% = ++)
80 (TEQSLYYRQW; listed as Homo sapiens) [compound 80] = +++ (>50 = +++)
365 (NESGKAFNY; listed as Homo sapiens) [compound 365] = ++++ (>75% = ++++)
403 (QESVHVASY; listed as Homo sapiens) [compound 403] = ++++ (>75% = ++++)
45 (EEINELNRMI; listed as Homo sapiens) [compound 45] = +++ (>50 = +++)
455 (QESVHVASYYW; listed as Homo sapiens) [compound 455] = ++++ (>75% = ++++)

Alright, here's another substance for you.
Q. I would be grateful if you could share the reported Peptide exchange (MHC class I binding score, peptide exchange yield) for 97 (ELVHMINW; listed as Homo sapiens) [compound 97] .
A. ++ (>20% = ++)

====

Biological target: HLA-B*44:05 (Homo sapiens, UniProt P01889, A223V/A65T/A93T/A95T/D201E/D98Y/E176V/E187L/E204Q/E69K/G107R/H137Y/K202T/L105A/L119I/N104T/N87E/Q56L/Q94N/R106L/R155S/R180D/S101N/S121R/S35A/S48T/T118I/V36M/W191S/Y91S)
Assay: MHC binding assay (UV-ligand exchange, β2m ELISA, peptide exchange yield)
Conditions: binding to HLA-B*44:05
Reported metric: Peptide exchange (MHC class I binding score, peptide exchange yield)

Look over these answered cases.
136 (EEMPEEIHL; listed as Homo sapiens) [compound 136] = +++ (>50 = +++)
355 (SETSTGTSV; listed as Homo sapiens) [compound 355] = ++ (>20% = ++)
39 (AEAMGKFKQCF; listed as Homo sapiens) [compound 39] = +++ (>50 = +++)
256 (RLLPGKVVW; listed as Homo sapiens) [compound 256] = ++ (>20% = ++)
414 (AEGYLDLDGI; listed as Homo sapiens) [compound 414] = ++ (>20% = ++)
170 (REMFVFKDQW; listed as Homo sapiens) [compound 170] = ++++ (>75% = ++++)
279 (GEPVTQPGSLL; listed as Homo sapiens) [compound 279] = +++ (>50 = +++)
312 (KEWEREKAVSL; listed as Homo sapiens) [compound 312] = +++ (>50 = +++)

Q. I would be grateful if you could share the reported Peptide exchange (MHC class I binding score, peptide exchange yield) for 454 (SESSSAFQF; listed as Homo sapiens) [compound 454] .
A. +++ (>50 = +++)

Q. I would be grateful if you could share the reported Peptide exchange (MHC class I binding score, peptide exchange yield) for 277 (VEFPATRSL; listed as Homo sapiens) [compound 277] .
A. +++ (>50 = +++)

Q. I would be grateful if you could share the reported Peptide exchange (MHC class I binding score, peptide exchange yield) for 443 (EEYAGQITL; listed as Homo sapiens) [compound 443] .
A. +++ (>50 = +++)

Q. I would be grateful if you could share the reported Peptide exchange (MHC class I binding score, peptide exchange yield) for 9 (MEVDPIGHLYIF; listed as Homo sapiens) [compound 9] .
A. ++++ (>75% = ++++)

Q. I would be grateful if you could share the reported Peptide exchange (MHC class I binding score, peptide exchange yield) for 172 (RENPGMFSW; listed as Homo sapiens) [compound 172] .
A. +++ (>50 = +++)

Q. I would be grateful if you could share the reported Peptide exchange (MHC class I binding score, peptide exchange yield) for 159 (EEVQDGKVI; listed as Homo sapiens) [compound 159] .
A. ++ (>20% = ++)

Q. I would be grateful if you could share the reported Peptide exchange (MHC class I binding score, peptide exchange yield) for 169 (KEHNSSVPWSS; listed as Homo sapiens) [compound 169] .
A. ++++ (>75% = ++++)

====

Target: HLA-B*44:05 (Homo sapiens, UniProt P01889, A223V/A65T/A93T/A95T/D201E/D98Y/E176V/E187L/E204Q/E69K/G107R/H137Y/K202T/L105A/L119I/N104T/N87E/Q56L/Q94N/R106L/R155S/R180D/S101N/S121R/S35A/S48T/T118I/V36M/W191S/Y91S)
Test: MHC binding assay (UV-ligand exchange, β2m ELISA, peptide exchange yield)
Conditions: binding to HLA-B*44:05
Reported metric: Peptide exchange (MHC class I binding score, peptide exchange yield)

Look over these answered cases.
85 (SEIDEKVTDL; listed as Homo sapiens) [compound 85] = +++ (>50 = +++)
330 (SEHLFGTSY; listed as Homo sapiens) [compound 330] = +++ (>50 = +++)
116 (AEANPRDLGASW; listed as Homo sapiens) [compound 116] = +++ (>50 = +++)
444 (SESALQTVI; listed as Homo sapiens) [compound 444] = +++ (>50 = +++)
423 (KEAINLLKNY; listed as Homo sapiens) [compound 423] = +++ (>50 = +++)
381 (QELMAFSFAGL; listed as Homo sapiens) [compound 381] = ++++ (>75% = ++++)
276 (SEYQDGKEF; listed as Homo sapiens) [compound 276] = ++ (>20% = ++)
34 (AEPPILYSEY; listed as Homo sapiens) [compound 34] = ++ (>20% = ++)
247 (KESMLKTTL; listed as Homo sapiens) [compound 247] = +++ (>50 = +++)
338 (AEMKFYVVI; listed as Homo sapiens) [compound 338] = +++ (>50 = +++)

Q. I would be grateful if you could share the reported Peptide exchange (MHC class I binding score, peptide exchange yield) for 433 (AEEGPSVPKIY; listed as Homo sapiens) [compound 433] .
A. +++ (>50 = +++)

Q. I would be grateful if you could share the reported Peptide exchange (MHC class I binding score, peptide exchange yield) for 349 (LEWQHPSSW; listed as Homo sapiens) [compound 349] .
A. ++++ (>75% = ++++)

Q. I would be grateful if you could share the reported Peptide exchange (MHC class I binding score, peptide exchange yield) for 442 (KESDAGKYY; listed as Homo sapiens) [compound 442] .
A. +++ (>50 = +++)

Q. I would be grateful if you could share the reported Peptide exchange (MHC class I binding score, peptide exchange yield) for 391 (TESIGAQIY; listed as Homo sapiens) [compound 391] .
A. +++ (>50 = +++)

Q. I would be grateful if you could share the reported Peptide exchange (MHC class I binding score, peptide exchange yield) for 201 (MEILWKTLT; listed as Homo sapiens) [compound 201] .
A. ++++ (>75% = ++++)

Q. I would be grateful if you could share the reported Peptide exchange (MHC class I binding score, peptide exchange yield) for 367 (TEFAVKLKI; listed as Homo sapiens) [compound 367] .
A. +++ (>50 = +++)

Q. I would be grateful if you could share the reported Peptide exchange (MHC class I binding score, peptide exchange yield) for 378 (QELFLQEVRM; listed as Homo sapiens) [compound 378] .
A. +++ (>50 = +++)

Q. I would be grateful if you could share the reported Peptide exchange (MHC class I binding score, peptide exchange yield) for 211 (LEMLDAHRL; listed as Homo sapiens) [compound 211] .
A. +++ (>50 = +++)

Q. I would be grateful if you could share the reported Peptide exchange (MHC class I binding score, peptide exchange yield) for 225 (VEAATVSKW; listed as Homo sapiens) [compound 225] .
A. +++ (>50 = +++)

Q. I would be grateful if you could share the reported Peptide exchange (MHC class I binding score, peptide exchange yield) for 210 (AEGEPPPALAW; listed as Homo sapiens) [compound 210] .
A. +++ (>50 = +++)
